The reported measurements were obtained from ChEMBL document CHEMBL1201862.

tested on: UO-31; experiment: NCI tumour cell line growth inhibition, 48 h
The source made the active and inactive calls. Rule as the data show it: active = GI50 up to about 1.1 µM and inactive = higher.
The categories you may choose from are True = active, False = inactive

Record excerpt, results attached:
COc1ccc2c(c1)[n+]([O-])c(-c1ccc(Cl)c(Cl)c1)c(N)[n+]2[O-] :: False
CN1C(=O)c2c(c3c4ccccc4n(C)c3c3c2c2ccccc2n3C)C1=O :: False
Cc1oc2c(C)c(O)c3c(c2c1C1(C)OCCO1)C(=O)C=C(Cl)C3=O :: False
O=S1(=O)C[C@H](O)[C@H](O)CS1 :: False
CC1=C(C(=O)CC(=O)C(=O)Nc2cccc(C)c2C)Sc2ccccc2N1 :: False
COC(=O)[C@H]1COC(=O)N1 :: False
Cn1c(-c2ccccc2)cc(-c2ccc3c(c2)OCO3)c1-c1ccsc1 :: False
Cn1c(-c2cccs2)cc(-c2ccsc2)c1-c1cccs1 :: False

What did this assay record as the result for N#Cc1c(NC(=S)Nc2ccc(Cl)cc2)sc2c1CCCC2 ?
False

Same question, CC1(C)CC(=O)C(Cc2ccccc2)(Cc2ccccc2)C(=O)C1 this time
False

Same question, OCC1CCC(n2cnc3c(O)ncnc32)O1 (stereo unspecified) this time
False

Same question, COc1ccc(C2CCc3cc4c(cc3/C2=N/OC(C)=O)OCO4)cc1OC (stereo unspecified) this time
False

Same question, COCCCCCC(=O)CP(=O)(OC)OC this time
False

Same question, CC(C)CNC(=O)O this time
False

Same question, Cc1cccc2cc3c(ccc4ccccc43)c[n+]12 this time
False

Same question, Cc1ccc2c(ccc(/C=C/c3ccc(O)c4ncccc34)[n+]2C)c1 this time
False

Same question, CC[P+]1(c2ccccc2)CCCCC1 this time
False

Same question, CC1[C@@]2(CCC(C)(C)O2)O[C@@H]2C=C3C4CCC5Cc6nc7c(nc6C[C@@]5(C)C4C[C@H](O)[C@@]3(C)[C@]12O)CC1CCC2C3=C[C@H]4O[C@@]5(O[C@@](C)(CO)C[C@@H]5O)C(C)[C@@]4(O)[C@]3(C)[C@@H](O)CC2[C@]1(C)C7 (stereo partly specified) this time
True

Same question, Cc1ccc2nc3c(C)c(Cl)c(=O)cc-3sc2c1 this time
False

Same question, O=c1c2ncn(CCCl)c2n(-c2ccccc2)c(=S)n1-c1ccccc1 this time
False

====

test system: ACHN; experiment: NCI tumour cell line growth inhibition, 48 h
Active and inactive are the calls of the source. No stated cut-off is given here; in the data, active = GI50 up to about 1.1 µM and inactive = higher.
Task for the reader: assign each of the following compounds its reported GI50.

CCSc1nc2n(c(=S)n1)CCN2C :: 19.1 µM (inactive)

// input: 2 compounds below; output: GI50 for each
1. CSc1ccc(NC(=O)C2CCCCC2C(=O)O)cc1 (stereo not given)
2. CCOC(=O)Cn1c(=O)c2nc(SC)sc2n(-c2ccc(C)cc2)c1=S

1: > 100 µM (inactive); 2: 48.1 µM (inactive)

// input: 2 compounds below; output: GI50 for each
1. N=C1N(/N=C/c2ccccn2)/C(=N\c2ccccc2)C(=S)N1c1ccccc1
2. CC[C@H](C)C1=C(O)[N@+]2([O-])Oc3ccc(-c4c(O)c(O)c(-c5ccc(OC(C)=O)cc5)c(OC(C)=O)c4OC(C)=O)cc3O[C@]2([C@@H](C)CC)C(=O)N1O

1. 2.55 µM (inactive)
2. 26.3 µM (inactive)

====

tested on: KM12; assay: NCI tumour cell line growth inhibition, 48 h
Activity calls are given as the source filed them. Cut-off read from the data, not from the text of the source: active = GI50 up to about 1.1 µM and inactive = higher.
The categories you may choose from are active, inactive

Record excerpt, results attached:
COc1ccc2[nH]c3c(C)c4ccnc(NCCCN(C)CCCNc5ccc6nnn7c8ccccc8c(=O)c5c67)c4c(C)c3c2c1 :: active
COc1cc2c[n+](C)c3c4cc5c(cc4ccc3c2cc1OC)OCO5 [NITIDINE CHLORIDE] :: inactive
Cc1c2c(nc3ccccc13)C(=O)c1cccnc1C2=O :: inactive
Cc1c(N)nc([C@H](CC(N)=O)NC[C@H](N)C(N)=O)nc1C(=O)N[C@H](C(=O)N[C@H](C)[C@@H](O)[C@H](C)C(=O)N[C@H](C(=O)NCCc1nc(-c2nc(C(=O)NCCC[S+](C)C)cs2)cs1)[C@@H](C)O)C(OC1OC(CO)C(O)C(O)C1OC1OC(CO)C(O)C(OC(N)=O)C1O)c1c[nH]cn1 (stereo partly drawn) :: inactive
CC1=NN(c2cc(Cl)c(S(=O)(=O)O)cc2Cl)C2(C1)C(Cl)C(=O)N2c1nc2ccccc2s1 (stereo not drawn) :: inactive
N#Cc1c(O)cc(=O)n2c1[nH]c1ccccc12 :: inactive

What did this assay record as the result for OCC(CO)CC1COc2ccccc2O1 (stereo not drawn) ?
inactive

Same question, C#CCOCC12C=CC(O1)C1COC(=O)C12 (stereo not drawn) this time
inactive

Same question, O=C1C=C(N2CC2)C(=O)C=C1N1CC1 this time
active

Same question, CSc1ccc(NC(=O)C2CCCCC2C(=O)O)cc1 (stereo not drawn) this time
inactive

Same question, C=C(C)C1CC=C(C)CC1 (stereo not drawn) this time
inactive

Same question, COC(=O)c1c(C#C[Si](C)(C)C)c(C#C[Si](C)(C)C)c(C#C[Si](C)(C)C)c(C#C[Si](C)(C)C)c1C(=O)OC this time
inactive

Same question, COP(=O)(OC)C(O)/C=C/c1ccco1 (stereo not drawn) this time
inactive

Same question, CCCCCCCCCCC[N+]1(Cc2ccccc2)CC2CCN(Cc3ccccc3)CC2C1 (stereo not drawn) this time
active

Same question, O=C1Oc2ccccc2C(=O)/C1=C/NC(=S)NCc1ccccc1 this time
inactive

====

test system: M14; experiment: NCI tumour cell line growth inhibition, 48 h
The source made the active and inactive calls. Cut-off read from the data, not from the text of the source: active = GI50 up to about 1.1 µM and inactive = higher.
The categories you may choose from are yes for active, no for inactive

O=C1CC(=O)N(C2CCCCC2)C(=O)N1c1ccccc1S(=O)(=O)Oc1ccccc1 :: no
N#CC(C#N)=Cc1ccc(CP(=O)(O)O)cc1 :: no
CCOC(=O)C1(C(=O)OCC)CSC1 :: no
C=C1C(=O)O[C@@H]2C=C(C)C3=CC(=O)[C@](C)(C[C@H](OC(=O)/C(C)=C\C)[C@@H]12)O3 :: yes

What did this assay record as the result for Cc1ccsc1/C(S)=N\c1ccc(Cl)c(/C=N/OC(C)(C)C)c1 ?
no

Same question, CC(=O)OCC1OC(n2c3c(cc(C#N)c2=S)CCCC3)C(OC(C)=O)C(OC(C)=O)C1OC(C)=O (stereo not given) this time
no

====

test system: U-251; test: NCI tumour cell line growth inhibition, 48 h
Calls of active or inactive are those of the source. Cut-off read from the data, not from the text of the source: active = GI50 up to about 1.1 µM and inactive = higher.
The categories you may choose from are Yes = active, No = inactive

CC1=C(C(=O)Nc2ccccc2C)C(c2ccc(Cl)cc2)C(C(=O)Nc2ccccc2C)=C(C)N1 :: No
CC(C)CNC(=O)O :: No
Oc1c(C2=N[C@H]3CCCC[C@@H]3N2)ccc2ccccc12 :: No

What did this assay record as the result for CCOC(=O)c1csc(-c2cn(C)c3c2C(=O)C(OC)=CC3=O)n1 ?
No

Same question, CS(=O)(=O)NNS(=O)(=O)c1ccc(F)cc1 this time
No

Same question, O=C1[C@H]2C(c3ccccc3)=NN(C(=O)c3ccccc3)[C@H]2C(=O)N1c1ccccc1 this time
No

Same question, OCc1ccc(-c2ccc(-c3ccc(CO)s3)o2)s1 this time
Yes

Same question, CCCCCCCCCCCCCCCCOC(=O)C(C(=O)OCCCCCCCCCCCCCCCC)[N+](C)(C)CCOC(C)=O this time
No

Same question, O=C1Oc2ccccc2C(=O)/C1=C/NC(=S)NCc1ccccc1 this time
No

====

tested on: UACC-62; test: NCI tumour cell line growth inhibition, 48 h
Activity calls are given as the source filed them. Cut-off read from the data, not from the text of the source: active = GI50 up to about 1.1 µM and inactive = higher.
Reported metric: GI50

Known results for compounds:
Cn1c(=O)c(C(c2ccc([N+](=O)[O-])cc2)c2c(O)c3ccccc3n(C)c2=O)cc2ccccc21 (centres undefined) :: 19.2 µM (inactive)
CCCC(C(=O)OC)C1N/C(=N/C#N)N(Cc2ccccc2)C1=O (centres undefined) :: > 100 µM (inactive)
CC(CO)CCNc1ncnc2c1ncn2CCC(=O)OC(C)(C)C (centres undefined) :: > 100 µM (inactive)

// input: 6 compounds below; output: GI50 for each
1. CCC(C)c1cccc(C)c1NC(=O)C(=O)Cc1nc2ccccc2s1 (centres undefined)
2. CC1(C)OC(=O)C(Cc2ccccc2)(Cc2ccccc2)C(=O)O1
3. C=CCN1C(=O)/C(=C/c2cccs2)N=C1SC1OC(COC(=O)c2ccccc2)C(OC(=O)c2ccccc2)C1OC(=O)c1ccccc1 (centres undefined)
4. CC1=C(C(=O)Nc2ccccc2C)C(c2ccc(Cl)cc2)C(C(=O)Nc2ccccc2C)=C(C)N1
5. CC(=O)/C(=C\c1ccccc1)C(=O)Nc1ccccc1
6. COc1cc(C=C2N=C(c3ccccc3)N(n3c(-c4ccccc4)nc4ccccc4c3=O)C2=O)cc(OC)c1OC

1: > 100 µM (inactive); 2: > 100 µM (inactive); 3: > 100 µM (inactive); 4: > 100 µM (inactive); 5: > 100 µM (inactive); 6: 22.3 µM (inactive)
